Reference source: paper PMC8036666

- method-description: Lipopeptide hydrophobicity by RP-HPLC (adjusted retention time)
- Format: physicochemical
- test-conditions: between corresponding surfactants of series C and B
Where a SMILES comes first, the peptide text is derived from it. Bridges are numbered along the chain shown (N, C = ends). Roman numbers before positions name the chains, in order. [ ]: non-standard residue; d: D form. The star is where a group is joined. Myristoyl = CCCCCCCCCCCCCC(=O)*; Lauroyl = CCCCCCCCCCCC(=O)*; Nle = CCCC[C@H](N)C(=O)O; Octanoyl = CCCCCCCC(=O)*
For each entry below, report its Difference in retention time calculated as tR’C—tR’B value.
Answers are plain numbers, in min.

Would you please look over these solved cases?
compound	recorded-number
CCCCCCCC(=O)N[C@@H](Cc1ccccc1)C(=O)N[C@@H](CCCNC(=N)N)C(=O)N[C@@H](CCCNC(=N)N)C(=O)N[C@@H](CSSC[C@H](NC(=O)[C@H](CCCNC(=N)N)NC(=O)[C@H](CCCNC(=N)N)NC(=O)[C@H](Cc1ccccc1)NC(=O)CCCCCCC)C(N)=O)C(N)=O [Compound C5] (I: Octanoyl-FRRC-NH2 / II: Octanoyl-FRRC-NH2; disulfide I:4-II:4)	0.23
CCCCCCCCCCCCCC(=O)N[C@@H](CCCNC(=N)N)C(=O)N[C@@H](CCCNC(=N)N)C(=O)N[C@@H](CSSC[C@H](NC(=O)[C@H](CCCNC(=N)N)NC(=O)[C@H](CCCNC(=N)N)NC(=O)CCCCCCCCCCCCC)C(N)=O)C(N)=O [Compound C4] (I: Myristoyl-Arg-Arg-Cys-NH2 / II: Myristoyl-Arg-Arg-Cys-NH2; disulfide I:3-II:3)	-0.03
CCCCCCCCCCCC(=O)N[C@@H](CCCNC(=N)N)C(=O)N[C@@H](CCCNC(=N)N)C(=O)N[C@@H](CSSC[C@H](NC(=O)[C@H](CCCNC(=N)N)NC(=O)[C@H](CCCNC(=N)N)NC(=O)CCCCCCCCCCC)C(N)=O)C(N)=O [Compound C3] (I: Lauroyl-Arg-Arg-Cys-NH2 / II: Lauroyl-Arg-Arg-Cys-NH2; disulfide I:3-II:3)	0.15

Pending compound:
Asked: Need Difference in retention time calculated as tR’C—tR’B of CCCCCCCC(=O)N[C@@H](CCCC)C(=O)N[C@@H](CCCNC(=N)N)C(=O)N[C@@H](CCCNC(=N)N)C(=O)N[C@@H](CSSC[C@H](NC(=O)[C@H](CCCNC(=N)N)NC(=O)[C@H](CCCNC(=N)N)NC(=O)[C@H](CCCC)NC(=O)CCCCCCC)C(N)=O)C(N)=O [Compound C6] (I: Octanoyl-[Nle]RRC-NH2 / II: Octanoyl-[Nle]RRC-NH2; disulfide I:4-II:4) , thanks.
Given back: 0.33
